B1: Ankyrin-1, residues 1405 to 1484; numbered along this chain, P16157 (parent)
chain: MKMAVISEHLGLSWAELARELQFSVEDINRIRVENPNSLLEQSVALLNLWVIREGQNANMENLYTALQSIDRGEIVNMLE

variants of: B1; experiment: abundance fitness (aPCA) (normalised: wild type 0, dead -1); higher = more abundant; growth selection in yeast, the domain comes from the species named; conditions: Homo sapiens
Assign 1 (yes) to entries whose abundance fitness meets or exceeds -0.06; assign 0 (no) to the rest.

For orientation, consider the following solved cases.
S43K :: 0 (no)
E80A :: 0 (no)
L63S :: 0 (no)
L40F :: 1 (yes)
R53H :: 0 (no)

# input Hi team, for R30F , is the recorded abundance fitness at or above -0.06?
# output 0 (no)
